EC50: recorded values
Test system: Lemna minor
Test: whole plant or invertebrate
Format: in vivo
Details: Lemna minor, 168 h, read-out: Surface Area EC50
Express your answer in µM, writing the number without its unit.

Completed entries (count: 2):
[in] Given O=C(O)CNCP(=O)(O)O [Glyphosate] , state its recorded EC50.
[out] 60

[in] Given CON(C)C(=O)Nc1ccc(Cl)c(Cl)c1 [Linuron] , state its recorded EC50.
[out] 0.18

***
[in] Given CCOP(=S)(OCC)Oc1cc(C)nc(C(C)C)n1 [Diazinon] , state its recorded EC50.
[out] 570

[in] Given CNC(=O)O/N=C/C(C)(C)SC [Aldicarb] , state its recorded EC50.
[out] 11000

[in] Given CCCN(CCC)c1c([N+](=O)[O-])cc(C(F)(F)F)cc1[N+](=O)[O-] [Trifluralin] , state its recorded EC50.
[out] 1.4

[in] Given Cl[C@H]1[C@H](Cl)[C@@H](Cl)[C@@H](Cl)[C@H](Cl)[C@H]1Cl [Lindane] , state its recorded EC50.
[out] 11

###

Test system: Lemna minor
Experiment: whole plant or invertebrate
Format: in vivo
Conditions: Lemna minor, 168 h, read-out: Surface Area EC50
EC50: recorded values
Express your answer in µM, writing the number without its unit.

Completed entries (count: 2):
[in] Given Oc1c(Cl)cc(Cl)cc1Cl , state its recorded EC50.
[out] 3.5

[in] Given Oc1c(Cl)c(Cl)c(Cl)c(Cl)c1Cl , state its recorded EC50.
[out] 88

***
[in] Given C[n+]1ccc(-c2cc[n+](C)cc2)cc1 , state its recorded EC50.
[out] 0.11

###

Tested on: Lemna minor
Test: whole plant or invertebrate
Format: in vivo
Conditions: 168 hour (7 day); 95% confidence interval in brackets
Frond Number EC10: recorded values

[in] Given C[n+]1ccc(-c2cc[n+](C)cc2)cc1 [Paraquat] , state its recorded Frond Number EC10.
[out] 0.000090 (0.000080–0.000010) mM

[in] Given Cl[C@H]1[C@H](Cl)[C@@H](Cl)[C@@H](Cl)[C@H](Cl)[C@H]1Cl [Lindane] , state its recorded Frond Number EC10.
[out] 0.0048 (0.0036–0.0060) mM

[in] Given CCCN(CCC)c1c([N+](=O)[O-])cc(C(F)(F)F)cc1[N+](=O)[O-] [Trifluralin] , state its recorded Frond Number EC10.
[out] 0.00037 (0–0.00075) mM

[in] Given O=C(O)CNCP(=O)(O)O [Glyphosate] , state its recorded Frond Number EC10.
[out] 0.034 (0.022–0.046) mM

***
[in] Given Oc1c(Cl)c(Cl)c(Cl)c(Cl)c1Cl [Pentachlorophenol] , state its recorded Frond Number EC10.
[out] 0.0053 (0.0037–0.0070) mM

###

Surface Area EC10: recorded values
Test system: Lemna minor
Assay: whole plant or invertebrate
Type: in vivo
Conditions: 168 hour (7 day); 95% confidence interval in brackets

Completed entries (count: 4):
[in] Given C[n+]1ccc(-c2cc[n+](C)cc2)cc1 [Paraquat] , state its recorded Surface Area EC10.
[out] 0.000098 (0.000060–0.000013) mM

[in] Given Oc1c(Cl)c(Cl)c(Cl)c(Cl)c1Cl [Pentachlorophenol] , state its recorded Surface Area EC10.
[out] 0.0086 (0–0.031) mM

[in] Given Cl[C@H]1[C@H](Cl)[C@@H](Cl)[C@@H](Cl)[C@H](Cl)[C@H]1Cl [Lindane] , state its recorded Surface Area EC10.
[out] 0.0040 (0.0021–0.0059) mM

[in] Given CCCN(CCC)c1c([N+](=O)[O-])cc(C(F)(F)F)cc1[N+](=O)[O-] [Trifluralin] , state its recorded Surface Area EC10.
[out] 0.00062 (0–0.0014) mM

***
[in] Given CCOP(=S)(OCC)Oc1cc(C)nc(C(C)C)n1 [Diazinon] , state its recorded Surface Area EC10.
[out] 0.031 (0–0.12) mM

[in] Given CON(C)C(=O)Nc1ccc(Cl)c(Cl)c1 [Linuron] , state its recorded Surface Area EC10.
[out] 0.00014 (0.00013–0.00016) mM

[in] Given CNC(=O)O/N=C/C(C)(C)SC [Aldicarb] , state its recorded Surface Area EC10.
[out] 1.0 (0–3.9) mM

[in] Given O=C(O)CNCP(=O)(O)O [Glyphosate] , state its recorded Surface Area EC10.
[out] 0.053 (0.036–0.071) mM

###

Test system: Lemna minor
Assay: whole plant or invertebrate
Assay type: in vivo
Conditions: 168 hour (7 day); 95% confidence interval in brackets
Measured metric: Chlorophyll Content EC10

Completed entries (count: 4):
[in] Given Oc1c(Cl)c(Cl)c(Cl)c(Cl)c1Cl , state its recorded Chlorophyll Content EC10.
[out] 0.00073 (0.00027–0.0012) mM

[in] Given CNC(=O)O/N=C/C(C)(C)SC , state its recorded Chlorophyll Content EC10.
[out] 0.096 (0.017–0.17) mM

[in] Given CCCN(CCC)c1c([N+](=O)[O-])cc(C(F)(F)F)cc1[N+](=O)[O-] , state its recorded Chlorophyll Content EC10.
[out] 0.000042 (0–0.00015) mM

[in] Given Cl[C@H]1[C@H](Cl)[C@@H](Cl)[C@@H](Cl)[C@H](Cl)[C@H]1Cl , state its recorded Chlorophyll Content EC10.
[out] 0.0039 (0.0016–0.0061) mM

***
[in] Given O=C(O)CNCP(=O)(O)O [Glyphosate] , state its recorded Chlorophyll Content EC10.
[out] 0.054 (0–0.30) mM

[in] Given CCOP(=S)(OCC)Oc1cc(C)nc(C(C)C)n1 , state its recorded Chlorophyll Content EC10.
[out] 0.016 (0–0.071) mM

[in] Given C[n+]1ccc(-c2cc[n+](C)cc2)cc1 , state its recorded Chlorophyll Content EC10.
[out] 0.00014 (0.00012–0.00016) mM

[in] Given CON(C)C(=O)Nc1ccc(Cl)c(Cl)c1 , state its recorded Chlorophyll Content EC10.
[out] 0.00010 (0.000069–0.00013) mM

###

Tested on: Lemna minor
Test: whole plant or invertebrate
Assay type: in vivo
Conditions: 168 hour (7 day); 95% confidence interval in brackets
Frond Number EC10: recorded values

Completed entries (count: 2):
[in] Given CCOP(=S)(OCC)Oc1cc(C)nc(C(C)C)n1 , state its recorded Frond Number EC10.
[out] 0.030 (0–0.140) mM

[in] Given CNC(=O)O/N=C/C(C)(C)SC , state its recorded Frond Number EC10.
[out] 0.40 (0.28–0.52) mM

Consider the record given below.
[in] Given CON(C)C(=O)Nc1ccc(Cl)c(Cl)c1 , state its recorded Frond Number EC10.
[out] 0.00015 (0.00013–0.00016) mM
